Biological target: T1, human PCSK9 (proprotein convertase subtilisin kexin type 9) (human, UniProt Q8NBP7 31-692)
T1 construct: Directly immobilized (SPR ProteOn), biotinylated (BLI), or in solution, depending on the assay; also called hPCSK9
Experiment: FRET, competitor EGFA peptide
READOUT_LABEL: IC50 (nM)
Could you give me the number in nM? Just the number is fine.

Examples from the recorded data:
>>> test_value("1922G04(R25D) (designed binder, Anti-PCSK9 Adnectin, GSGS-His6 tail; the entry already carries the substitution) MGVSDVPRDLEVVAATPTSLLISWDPPSHAYGYYRITYGETGGNSPVQEFTVPIGKGTATISGLKPGVDYTITVYAVEYPWKGSGYYHRPISINYRTGSGSHHHHHH")
2.5
>>> test_value("2382G04 (designed binder, Anti-PCSK9 Adnectin, His6-tagged) MGVSDVPRDLEVVAATPTSLLISWDAPAGGGYGYYRITYGETGGNSPVQEFTVPSSKGTATISGLKPGVDYTITVYAVEFDFPGAGYYHRPISINYRTEIDKPSQHHHHHH")
2.9
>>> test_value("2382F05 (designed binder, Anti-PCSK9 Adnectin, His6-tagged) MGVSDVPRDLEVVAATPTSLLISWDAPAEAGKHYGYYRITYGETGGNSPVQEFTVPVSKGTATISGLKPGVDYTITVYAVEFDFPGAGYYHRPISINYRTEIDKPSQHHHHHH")
2.4

Request: Item 2382H03 (designed binder, Anti-PCSK9 Adnectin, His6-tagged) MGVSDVPRDLEVVAATPTSLLISWDAPAEGAYGYYRITYGETGGNSPVQEFTVPVSKGTATISGLKPGVDYTITVYAVEYPYPFAGYYHRPISINYRTEIDKPSQHHHHHH : provide IC50
Result: 3.4

Request: Item 2382E05 (designed binder, Anti-PCSK9 Adnectin, His6-tagged) MGVSDVPRDLEVVAATPTSLLISWDAPAEGGYGYYRITYGETGGNSPVQEFTVPVSKGTATISGLKPGVDYTITVYAVEFDFPGAGYYHRPISINYRTEIDKPSQHHHHHH : provide IC50
Result: 2.8

Request: Item 2381B08 (designed binder, Anti-PCSK9 Adnectin, His6-tagged) MGVSDVPRDLEVVAATPTSLLISWDAPADGGYGYYRITYGETGGNSPVQEFTVPSSKGTATISGLKPGVDYTITVYAVEYTFPGAGYYHRPISINYRTEIDKPSQHHHHHH : provide IC50
Result: 2.6
